Kindly supply the reported MFI values for the records listed here.
Target: T1, mouse SEMA4D, full length, on CHO-K1 cells (CHO-K1 mSEMA4D) (mouse, UniProt O09126 24-861)
T1 construct: whole, on cells; also called murine SEMA4D recombinant cells
T1 sequence (looked up): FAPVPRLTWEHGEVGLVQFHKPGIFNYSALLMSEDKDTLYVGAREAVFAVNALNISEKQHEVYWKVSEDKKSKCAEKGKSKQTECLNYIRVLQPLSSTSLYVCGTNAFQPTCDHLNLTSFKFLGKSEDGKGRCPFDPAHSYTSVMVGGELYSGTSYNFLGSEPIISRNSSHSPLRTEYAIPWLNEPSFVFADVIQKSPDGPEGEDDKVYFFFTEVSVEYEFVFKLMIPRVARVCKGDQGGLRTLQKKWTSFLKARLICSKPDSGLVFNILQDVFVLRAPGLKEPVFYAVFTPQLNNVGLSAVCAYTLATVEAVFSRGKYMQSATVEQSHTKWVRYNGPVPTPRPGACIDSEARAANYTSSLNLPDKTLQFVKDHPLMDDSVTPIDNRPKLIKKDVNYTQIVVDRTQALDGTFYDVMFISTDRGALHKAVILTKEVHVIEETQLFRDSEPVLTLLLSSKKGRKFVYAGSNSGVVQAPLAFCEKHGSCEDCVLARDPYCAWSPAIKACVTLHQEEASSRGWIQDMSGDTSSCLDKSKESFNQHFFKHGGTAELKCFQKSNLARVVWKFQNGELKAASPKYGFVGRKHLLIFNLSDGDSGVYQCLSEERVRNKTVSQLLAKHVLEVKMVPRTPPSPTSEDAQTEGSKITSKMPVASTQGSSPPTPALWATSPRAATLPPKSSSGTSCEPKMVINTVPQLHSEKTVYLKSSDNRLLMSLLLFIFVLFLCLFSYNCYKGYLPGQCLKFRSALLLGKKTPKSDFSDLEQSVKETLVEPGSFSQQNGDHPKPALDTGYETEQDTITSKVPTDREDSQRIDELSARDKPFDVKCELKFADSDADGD
Assay: FACS, CHO-K1 mSEMA4D cells; Ab 2.67 nM
Give only the figure.

Quick one: give measured MFI for 31C11G2 (antibody, V domains shown, Mouse monoclonal antibody purified from hybridoma supernatant on protein A) VH: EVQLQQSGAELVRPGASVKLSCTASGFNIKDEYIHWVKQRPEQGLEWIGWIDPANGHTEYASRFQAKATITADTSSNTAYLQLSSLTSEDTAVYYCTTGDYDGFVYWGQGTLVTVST VL: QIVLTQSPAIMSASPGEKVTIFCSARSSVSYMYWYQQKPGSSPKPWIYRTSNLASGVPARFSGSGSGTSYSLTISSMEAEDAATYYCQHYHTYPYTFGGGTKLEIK
30.5

Name the recorded MFI of the binder listed here: 38H2E3 (antibody, V domains shown, Mouse monoclonal antibody purified from hybridoma supernatant on protein A) VH: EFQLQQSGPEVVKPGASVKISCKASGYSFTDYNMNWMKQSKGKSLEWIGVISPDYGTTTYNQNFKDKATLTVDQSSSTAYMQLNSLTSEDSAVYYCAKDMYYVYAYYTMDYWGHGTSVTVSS VL: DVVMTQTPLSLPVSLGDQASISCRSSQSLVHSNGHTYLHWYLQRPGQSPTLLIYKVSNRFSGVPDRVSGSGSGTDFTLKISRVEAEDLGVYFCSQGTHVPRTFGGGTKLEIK
30.7
